# System: TYK2 pseudokinase (JH2); IL-23-stimulated HEK-Blue IL-23 cells
# Assay Details: HEK-Blue IL-23 reporter assay (STAT3-inducible SEAP) for profiling TYK2 pseudokinase (JH2) inhibition
# Type: cell-based
# Condition Label: 10 ng/mL human recombinant IL-23, SEAP readout, read-out: IL23 (TYK2 inhibitory activity, IC50)
pIC50: −log10 of the molar value.
Reported pIC50 by item:

[2H]C([2H])([2H])NC(=O)c1cnc(NC(=O)C2CC2)cc1Nc1nccc2c1N(C)Cc1cc(C)nn1-2 [Compound 71]: > 7.52
[2H]C([2H])([2H])NC(=O)c1nnc(NC(=O)C2CC2)cc1Nc1nccc2c1N(C)C([2H])([2H])c1cn(C)nc1-2 [Compound 72]: > 7.52
[2H]C([2H])([2H])NC(=O)c1cnc(Nc2ccc(F)cn2)cc1Nc1cccc2c1N(C)Cc1cn(C)nc1-2 [Compound 13]: > 7.52
[2H]C([2H])([2H])NC(=O)c1cnc(NC(=O)C2CC2)cc1Nc1nccc2c1N(C([2H])([2H])[2H])Cc1cn(C)nc1-2 [Compound 66]: > 7.52
[2H]C([2H])([2H])NC(=O)c1cnc(NC(=O)[C@H]2C[C@H]2F)cc1Nc1cccc2c1N(C)Cc1cn(C)nc1-2 (single isomer, unassigned) [Compound 32]: > 7.52

Here is another compound to look at.
q: Kindly indicate its recorded pIC50. Item: CNC(=O)c1nnc(Nc2ccc(F)cn2)cc1Nc1cccc2c1OC(C)c1cn(C)nc1-2 (stereo not drawn) [Compound 11]
a: 6.52 to 7.52
